Tested on: Caenorhabditis elegans N2 infected with Nematocida parisii ERTm1
Assay: progeny production relative to DMSO uninfected control; higher = more progeny despite microsporidia infection (inhibition of infection with low host toxicity)
Conditions: infection time 6 days; 40 µM
Use t when the recorded progeny production is no lower than 5%; use f when it is lower.

Use the examples below as a reference point.
CCCCc1ccc(C(=O)O)nc1	f
NC1(C(=O)O)CCP(=O)(O)CC1 (stereo unspecified)	f
O=C(NC12CC3CC(CC(C3)C1)C2)c1cc2ccccc2[nH]1	t
COc1cc(C(C)(C)CCCC(C)C)cc(OC)c1OC	t
COC(=O)Nc1nc2ccccc2[nH]1	t

In: Check this compound for progeny production at or above 5%: "CC(C)Oc1cccc(NC(=O)c2ccccc2C(F)(F)F)c1"
Out: f

Where do these numbers come from? They come from the supplement of paper PMC10732440.
